Data provenance: paper PMC4703215

- MEASURED_TARGET: T1, JCV T-ag OBD wt (JC virus (JCV), UniProt P03072 132-261)
- T1 sequence: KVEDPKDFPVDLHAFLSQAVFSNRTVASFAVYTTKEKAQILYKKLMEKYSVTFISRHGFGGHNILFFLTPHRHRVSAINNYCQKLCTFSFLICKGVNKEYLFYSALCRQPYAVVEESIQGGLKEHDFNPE
- METHOD_NOTES: ITC; ITC: 10 mM Na phosphate pH 7.0, 50 mM NaCl, 5 mM DTT; anisotropy: 20 mM Hepes pH 7.4, 50 mM NaCl, 0.01% NP40, 0.1 mM DTT, 15 nM probe; temperature not stated
- MEASUREMENT_CONTEXT: protein: recombinant; tags: expressed from pGEX1λT (GST vector)
QUANTITY_NAME: pKd
Just the number, please; pKd means minus log10 of the concentration in mol/L.

[in] Param item = Site II duplex, four GAGGC pentanucleotides (dsDNA) DNA 1: TACAGGAGGCCGAGGCCGCCTCCGCCTCCAAGC DNA 2: GCTTGGAGGCGGAGGCGGCCTCGGCCTCCTGTA ; retrieve measured pKd.
[out] 6.76
